All values here come from patent US10570117B2.

Test: Solubility in gastric juice or intestinal juice model fluid (precipitation method using DMSO)
Format: physicochemical
Conditions: pH 1.2, simulated gastric fluid, kinetic from dmso stock, 1st fluid for Disintegration Test of Japanese Pharmacopoeia (pH: 1.2), room temperature, read-out: Solubility (μg/mL) 1st fluid
Please note: Y applies when solubility at 24 h is 70 µg/mL or greater, and N applies otherwise.

1) COc1cc(OCc2ncc(C(F)(F)F)cc2F)ccc1-c1[nH]c(-c2ccc(F)nc2)nc1Cl :: N
2) COc1cc(-c2[nH]c(C3CCCC(F)(F)C3)nc2Br)ccc1OCc1ccc(C(F)(F)F)cn1 (centres unmarked) :: Y
3) Cc1cc(OCc2ncc(C(F)(F)F)cc2F)ccc1-c1[nH]c(-c2ccc(F)nc2)nc1Cl :: N
4) COc1cc(OCc2ccncc2C(F)(F)F)ccc1-c1[nH]c(-c2ccc(F)nc2)nc1Br :: N
5) Oc1cc(OCc2ncc(C(F)(F)F)cc2F)ccc1-c1cnc(-c2ccc(F)nc2)[nH]1 :: Y
6) COc1cc(OCc2ccc(Br)cc2F)ccc1-c1c[nH]c(C2CC2)n1 :: N
7) COc1cc(OCn2cccn2)ccc1-c1nc(-c2ccc(Cl)nc2)[nH]c1Cl :: Y

###

Test: Solubility in gastric juice or intestinal juice model fluid (precipitation method using DMSO)
Type: physicochemical
Settings: pH 1.2, simulated gastric fluid, kinetic from dmso stock, 1st fluid for Disintegration Test of Japanese Pharmacopoeia (pH: 1.2), room temperature, read-out: Solubility (μg/mL) 1st fluid
Binary call on solubility at 24 h: 1 from 90 µg/mL upward, -1 beneath that.

1) COc1cc(-c2[nH]c(C3CC(F)(F)C3)nc2Cl)ccc1OCc1ccc(C(F)(F)F)cn1 :: -1
2) COc1cc(OC(C)c2ncc(C(F)(F)F)cc2F)ccc1-c1cnc(-c2ccc(F)nc2)[nH]1 (centres unmarked) :: -1
3) COc1cc(OCc2c(F)cc(C(F)(F)F)c[n+]2[O-])ccc1-c1[nH]c(-c2ccc(F)nc2)nc1Br :: 1
4) COc1cc(OCc2ncccc2C(F)(F)F)ccc1-c1[nH]c(-c2ccc(F)nc2)nc1Br :: 1
5) COc1cc(OCc2ccc(Br)cc2F)ccc1-c1c[nH]c(-c2ccncc2)n1 :: -1
6) COc1cc(-c2[nH]c(C3CCCC3)nc2Cl)ccc1OCc1ccc(C(F)(F)F)cn1 :: 1
7) COc1cc(-c2nc(C3CCCCC3)[nH]c2Cl)ccc1OCc1ccc(C(F)(F)F)cn1 :: 1
8) COc1cc(OCc2ccc(C(F)(F)F)[n+]([O-])c2)ccc1-c1cnc(-c2ccc(F)nc2)[nH]1 :: -1
9) CCc1nc(-c2ccc(F)nc2)[nH]c1-c1ccc(OCc2ncc(C(F)(F)F)cc2F)cc1OC :: 1
10) COc1cc(-c2c[nH]c(-c3ccccn3)n2)ccc1OCc1ccc(C(F)(F)F)cn1 :: -1
11) COc1cc(OCc2ccc(C(F)(F)F)cn2)ccc1-c1nc(-c2ccc(Cl)nc2)[nH]c1C :: 1
12) COc1c(OCc2ccc(C(F)(F)F)cn2)ccc(-c2c[nH]c(C3CCC(F)(F)CC3)n2)c1OC :: 1
13) Oc1cc(OCc2ncc(C(F)(F)F)cc2F)ccc1-c1[nH]c(-c2ccc(F)nc2)nc1Cl :: -1
14) COc1cc(OCc2ccc(C(F)(F)F)cn2)ccc1-c1c[nH]c(-c2cccnc2)n1 :: -1
15) COc1cc(OCc2ccc(C(F)(F)F)cn2)ccc1-c1nc(-c2ccc(Cl)nc2)[nH]c1Br :: -1
16) COc1cc(OCc2cc(C(F)(F)F)ccn2)ccc1-c1c[nH]c(-c2ccc(Cl)nc2)n1 :: -1
17) COc1cc(OCc2ccc(C(F)(F)F)cn2)ccc1-c1[nH]c(-c2ccc(Cl)nc2)nc1I :: -1
18) COc1cc(OCc2ccc(C(F)(F)F)nc2)c(C)cc1-c1[nH]c(-c2ccc(F)nc2)nc1Cl :: -1
19) COc1cc(OCc2cc(C(C)C)no2)ccc1-c1cnc(-c2ccc(F)nc2)[nH]1 :: -1
20) COc1cc(OCc2ccc(C(F)(F)F)nc2)ccc1-c1[nH]c(-c2ccc(F)nc2)nc1I :: -1
21) COc1cc(OCc2ccc(C(F)(F)F)cn2)ccc1-c1c[nH]c(-c2ccc(F)cn2)n1 :: -1
22) COc1cc(OCc2ccc(C(F)(F)F)nc2)ccc1-c1nc(-c2ccc(F)nc2)[nH]c1C :: -1
23) Cc1cc(OCc2ncc(C(F)(F)F)cc2F)ccc1-c1cnc(-c2ccc(F)nc2)[nH]1 :: -1
24) COc1cc(-c2[nH]c(CCC(F)(F)F)nc2Cl)ccc1OCc1ncc(C(F)(F)F)cc1F :: -1
25) COc1cc(OCc2ccc(Br)cc2F)ccc1-c1c[nH]c(-c2ccc(C)nc2)n1 :: -1
26) COc1cc(OCc2ncc(C(F)(F)F)cc2F)ccc1-c1[nH]c(C(C)(C)C)nc1Cl :: -1
